PROCEDURE_DETAILS: blockers of RIG-like receptor reporter activation – cell-based, Sendai virus stimulus, luciferase, 10K MLSCN set, TLR/RLR signaling modifier project, primary screen (AID 602276);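 also: firefly luciferase from ISG56 promoter only with Renilla not read in this screen; 0% = Sendai virus plus DMSO and 100% = medium plus DMSO without virus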
RECORDED_CONDITIONS: HEK293 RL24 IRF3 luciferase reporter, at 10 µM, stronger effect = higher value
ASSAY_READOUT: inhibition (%)

CHEMICAL_STRING	QUANTITATIVE_RESULT
CCOC(=O)CNS(=O)(=O)c1c(C)noc1C	1.51
CCn1c(=O)cc(SCC(=O)N2CCN(C3CCCCC3)CC2)c2ccccc21	8.4
Cc1ccccc1Cn1nc(C)c(NC(=O)c2noc3c2CCCC3)c1C	-24.6
CCOc1ccc(OCc2cccc(C(=O)O)c2)cc1	-46.2
c1nnc(NC2=NCCCCC2)s1	-16.9
COC(=O)c1c(NC(=O)c2ccc(S(=O)(=O)N3CCOCC3)cc2)sc2c1CCN(C)C2	-9.85
O=S(=O)(c1ccccc1)N1CCN(C2CCCCCCC2)CC1	-8.03
COc1ccccc1C(=O)Nc1c2c(nn1-c1cccc(C)c1C)CS(=O)(=O)C2	14.2
CCN(CC)CCCN(Cc1cc2cc(OC)ccc2[nH]c1=O)C(=O)Nc1ccccc1	17.1

* * *

STUDY_SYSTEM: Voltage-gated potassium channel subunit beta-2 (Rattus norvegicus) (UniProt P62483)
Sequence (P62483 whole entry, looked up): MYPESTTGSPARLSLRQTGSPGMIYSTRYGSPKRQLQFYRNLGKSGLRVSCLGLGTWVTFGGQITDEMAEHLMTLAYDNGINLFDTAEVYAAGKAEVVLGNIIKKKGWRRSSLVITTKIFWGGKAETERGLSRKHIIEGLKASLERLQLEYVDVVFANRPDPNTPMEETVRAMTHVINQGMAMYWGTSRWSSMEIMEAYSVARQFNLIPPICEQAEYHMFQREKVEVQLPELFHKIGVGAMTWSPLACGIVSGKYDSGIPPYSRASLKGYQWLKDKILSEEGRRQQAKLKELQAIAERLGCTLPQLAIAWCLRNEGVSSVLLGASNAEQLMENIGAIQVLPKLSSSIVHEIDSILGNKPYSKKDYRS
PROCEDURE_DETAILS: enhancers of rat Kvbeta2 NADPH turnover – biochemical, NADPH fluorescence, primary screen (AID 623);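 also: fluorescence intensity change per second fitted from 20 to 320 s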
RECORDED_CONDITIONS: Recombinant KvBeta, NADPH fluorescence decrease slope, 10 min; at 10 µM; stronger effect = lower value
Active and inactive are the calls of the source.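 The calls were made as follows: active = NADPH fluorescence slope more negative than the mean of all samples by about 3 SD, 99.7% confidence; inactive = the rest.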

COMPOUND	NADPH fluorescence slope
CCn1c(CSc2ncccn2)nnc1SCC(=O)N1c2ccccc2CC1C (stereo unspecified)	-7.9e-06 (inactive)
CN(C)S(=O)(=O)c1ccc(C(=O)N2CCC(c3nc4ccccc4o3)CC2)cc1	-9.6e-05 (inactive)
Cc1cc(C)n(-c2nc(C)nc3c2cnn3-c2ccccc2)n1	-3.8e-05 (inactive)
c1ccc(-c2cc3c(nn2)CCc2nonc2-3)cc1	-0.00017 (inactive)
CCn1c(CC(=O)Nc2cccc(OC)c2)nnc1SCC(=O)Nc1nccs1	-3.8e-05 (inactive)
CN(C(=O)COC(=O)C1CCN(S(=O)(=O)c2cccs2)CC1)C1CCS(=O)(=O)C1 (stereo unspecified)	-4.2e-05 (inactive)
COc1cccc(C(=O)OCCN(C)C(C)(C)C)c1	-3.4e-05 (inactive)
COc1ccc(OC)c(S(=O)(=O)Nc2ccccc2C(=O)O)c1	1.5e-05 (inactive)
CCOP(=O)(c1ccc(N(C)C)cc1)C(O)c1cc(OC)c(OC)c(OC)c1 (stereo unspecified)	-4.5e-05 (inactive)
O=C(NCc1ccco1)c1cc2n(n1)C(C(F)(F)F)CC(c1ccc(F)cc1)N2 (stereo unspecified)	-7.3e-06 (inactive)
O=c1c2cn[nH]c2nc(SCc2ccc3c(c2)OCCO3)n1-c1ccccc1	1.3e-05 (inactive)

* * *

PROCEDURE_DETAILS: inhibitors of TNFa-induced NFkB p65 translocation, primary screen, imaging, HUVEC, MLSMR starter and 10KST1 sets (AID 438);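 also: compound added about 3h40 before a 20 min TNFalpha stimulation; signal is the nuclear over cytoplasmic p65 intensity ratio per well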
RECORDED_CONDITIONS: HUVEC TNFa-induced p65 nuclear translocation; at 2 µM, stronger effect = higher value, 0% TNFa-plus-vehicle, 100% no-TNFa wells
Calls of active or inactive are those of the source.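 How the source made its calls: active means inhibition above 20% together with a positive visual image hit; inconclusive means visual image hit but inhibition not above 20%; inactive means no visual image hit.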
ASSAY_READOUT: inhibition

COMPOUND	ASSAY_READOUT	RESULT
ON1C2CCCCC2N(O)C1c1c(F)c(F)c(F)c(F)c1F (stereo not given)	inhibition	4.1% (inactive)
O=C(NCCCN1CCOCC1)C1CC(=O)N(CCc2ccccc2)C1 (stereo not given)	inhibition	-1% (inactive)
COCC(=O)N(Cc1nc2ccccc2c(=O)[nH]1)Cc1cccs1	inhibition	-5.4% (inactive)
CCCCc1ccc(NC(=O)N[C@H](C(=O)O)C(C)CC)cc1 (stereo not given in full)	inhibition	-13.3% (inactive)
COc1nc(N2CCOCC2)nc(-n2cccc2)n1	inhibition	-4.1% (inactive)
Cc1csc(NC(=O)c2cccc(S(=O)(=O)N3CCCCC3)c2)n1	inhibition	7.4% (inactive)
CCOCCCNC(=O)c1ccc2c(c1)ncn2C1CCCC1	inhibition	-4.8% (inactive)
COc1ccc(Cn2c(C)nc3c(c2=O)c2nc4ccccc4nc2n3Cc2ccco2)cc1	inhibition	-0.6% (inactive)
CC(=O)Nc1nc(C)c(-c2csc(Nc3ccc(O)cc3)n2)s1	inhibition	1.5% (inactive)
CCC(=O)n1nc(-c2ccco2)nc1N	inhibition	-0.5% (inactive)
O=C1NCCCc2c1no[n+]2[O-]	inhibition	5.3% (inactive)
Cc1ccc(S(=O)(=O)Cc2ccc(C(=O)NCc3ccc4c(c3)OCO4)o2)cc1	inhibition	-1.9% (inactive)
CC(C)CCn1c(SCC#N)nc2c(sc3ccccc32)c1=O	inhibition	-3.6% (inactive)
CCC(C)C(NC(=O)C1CCC(C)CC1)C(=O)NCc1cccnc1 (stereo not given)	inhibition	-13.1% (inactive)
CCn1cc(C(=O)NCCN(C)CCc2ccccc2)c(=O)c2cc(S(=O)(=O)N(C)C)ccc21	inhibition	-20.4% (inactive)
